Tested on: HCT-15
Where a SMILES comes first, the peptide text is derived from it. The star is where a group is joined. Cbz = O=C(OCc1ccccc1)*; Bn = c1ccc(C*)cc1
Known log10 of GI50 of a selection of molecules
// units: µM (pre-log); metric: GI50; scale: log10

Observe how each entry below is paired with its result.
{"columns": ["molecule", "experimental-value"],
 "data": [
  ["COC(=O)C(Cc1ccc(O)cc1)NC(=O)C(COCc1ccccc1)NC(=O)OCc1ccccc1 (configuration not stated) (Cbz-Ser(Bn)-Tyr-OMe; configuration not given here)", 1.27],
  ["C=C(C)C(=O)O[C@H]1[C@H]2[C@H](OC(=O)[C@H]2C)[C@H](O)[C@@H](C)[C@@H]2C=CC(=O)[C@]21C", 0.31],
  ["CCN1C(c2ccccc2)=CC(c2ccccc2)(C(Cl)(Cl)Cl)C=C1c1ccccc1", 1.63],
  ["Cc1ccc(NCC2CC/C(=C\\c3ccc(Cl)cc3)C2=O)cc1 (configuration not stated)", 0.29],
  ["S=C(NCCc1ccccn1)N/N=C(\\c1ccccc1)c1ccccn1", -1.56],
  ["CCOC(=O)C1(Cc2ccccc2)Cc2cc3c(cc2C1)CCC3", 1.44]
]}

Problem: Give the measured log10 of GI50 of CN(C)C=C1C(=O)c2c(Br)sc(Br)c2C1=O .
Solution: 1.26

Problem: Try COc1ccc(N(C(=O)OC(C)(C)C)[C@@H]2C(C)=C[C@H]([S@@+]([O-])c3ccc(C)cc3)[C@@H]3C(=O)N(C)C(=O)[C@@H]32)cc1 next.
Solution: 1.44

Problem: One more molecule: O=Cc1cccc2ccc3ccccc3c12
Solution: 1.05

Problem: Record: C/C=C/c1cc2c(c(=O)o1)C(=O)[C@@H](O)[C@H](C)O2
Solution: 1.05

---

The reader will find reported GI50 values listed item by item below.
System: SK-MEL-5
experiment-notes: NCI tumour cell line growth inhibition, 48 h
Calls of active or inactive are those of the source. No stated cut-off is given here; in the data, active = GI50 up to about 1.1 µM and inactive = higher.

Some compounds with recorded GI50:
{"columns": ["compound", "GI50"],
 "data": [
  ["N/C(S)=N/N=C/c1ccc(O)cn1", "5.65 µM (inactive)"],
  ["CC(C)NCC(O)c1ccc(O)c2ncccc12 (centres undefined)", "66.4 µM (inactive)"]
]}

Problem: Value wanted: GI50 (SK-MEL-5) of entry COc1ccc(/C=C/C(=O)c2c(-c3ccccc3)nn(C)c(=O)c2N2CCCCC2)cc1
Solution: 12.8 µM (inactive)

Problem: Now this one: Cc1ccc(NC(=O)C(=O)C2C(=O)NC(=O)NC2=O)cc1C
Solution: > 100 µM (inactive)

Problem: Note, next up: O=P(O)(O)CN1CCN(CP(=O)(O)O)CCN(CP(=O)(O)O)CCN(CP(=O)(O)O)CC1
Solution: > 10 µM (inactive)

---

Tested on: CCRF-CEM
experiment-notes: NCI tumour cell line growth inhibition, 48 h
Activity calls are given as the source filed them. Cut-off read from the data, not from the text of the source: active = GI50 up to about 1.1 µM and inactive = higher.
A correct response names exactly one class from yes (active), no (inactive)

Below, 3 compounds whose answers are already recorded.
{"columns": ["compound", "measured-target", "class-label"],
 "data": [
  ["CCCC(=O)OC[n+]1ccc2c(C)c3[nH]c4ccccc4c3c(C)c2c1", "CCRF-CEM", "no"],
  ["O=c1cc(N2CCOCC2)n2c(ccc3ccccc32)n1", "CCRF-CEM", "no"],
  ["C(/C=C/N1CCCC1)=C\\c1nc(N2CCCC2)c2ccccc2n1", "CCRF-CEM", "no"]
]}

Problem: Outcome logged for COc1ccc(C2=C3SC=c4ccccc4=C3ON=C2c2ccccc2)cc1 in this assay:
Solution: no

Problem: Request: CC(C)[Si](OC12CCC(CC1O)CC2C(=O)O)(C(C)C)C(C)C (centres undefined)
Solution: no

Problem: Moving on to the next compound: CNS(=O)(=O)NNS(=O)(=O)c1ccc(Cl)cc1
Solution: no

Problem: // query: CC1=Nc2nc3ccccc3n2C(C)(C)C1
Solution: no

Problem: // same read-out, input: COc1ccc(Nc2nc3ccccc3nc2-c2cccs2)cc1
Solution: no

Problem: Lookup COc1ccc(C2(Cl)C(Cl)(C(F)(F)F)C2(Cl)C(F)(F)F)cc1 (centres undefined)
Solution: no

Problem: Repeat for the following compound: CN(C)CCn1c2ccccc2c2nc3cc4ccccc4cc3nc21
Solution: no

Problem: Next: COC(=O)/C(C#N)=C1\NN=NN1CCCN1CCOCC1
Solution: no

Problem: And NS(=O)(=O)c1cccc(NC(=S)NC(=O)Nc2ccc(Cl)c(Cl)c2)c1 ?
Solution: no

Problem: Note, next up: O=C1C(=CNc2ccc([N+](=O)[O-])cc2)C(=O)N(c2ccccc2)C(=O)N1c1ccccc1
Solution: no

Problem: Entry to check: S=C(NCCc1ccccn1)N/N=C(\c1ccccc1)c1ccccn1
Solution: yes

Problem: Continue with CC#Cc1c(C#CC)c(OC)c2c(c1OC)C(=O)c1ccccc1C2=O
Solution: no

Problem: Now the same for CN(C)c1c([O-])c(=[N+](C)C)c1=O
Solution: no

Problem: Now consider COC(=O)[C@]1(c2cc3ccccc3n2S(=O)(=O)c2ccccc2)CC2CCC1NC2 (some centres undefined) .
Solution: no

Problem: Quick one: COc1ccc(CC2c3cc(OC)c(OC)c(OC)c3CC[N+]2(C)C)cc1Oc1ccc(CC2c3cc4c(c(OC)c3CC[N+]2(C)C)OCO4)cc1 (centres undefined)
Solution: no

Problem: What about CNC(=S)NN=C1NCCCCN1 ?
Solution: no
